System: OVCAR-8 ovarian
test_protocol: NCI tumour cell line growth inhibition, 48 h
property_label: TGI

Recorded TGI (compound O=C(CCC(=O)c1ccsc1)c1ccsc1 ): > 100 µM

Recorded TGI (compound CC(=O)OC(C)(C)C1CC[C@]2(C)/C=C/C(C)C[C@@H](O)/C=C(\C)CC(O)C12 (stereo not given in full) ): > 100 µM

Recorded TGI (compound NCCCCCC(CCN)SCC1OC(n2cnc3c(N)ncnc32)C(O)C1O (stereo not given) ): > 1500 µM

Recorded TGI (compound C=C1c2nc3ccccc3n2C=C(c2ccc(OC)cc2)N1c1ccc(OCCN2CCCCC2)cc1 ): > 100 µM

Recorded TGI (compound CS(=O)(=O)OCCN(CCOS(C)(=O)=O)c1ccc(C=Nc2ccc(-c3csc(COc4ccccc4)n3)cc2)cc1 ): 19.6 µM

Recorded TGI (compound NC1=C(O)c2cccc3cccc(c23)C1=O ): > 100 µM

Recorded TGI (compound C[N+]1(C)C2CC(OC(=O)C(CO)c3ccccc3)CC1C1OC12 (stereo not given) ): > 100 µM

Recorded TGI (compound C#CCOC(=O)C(N)CC(N)=O (stereo not given) ): > 100 µM

Recorded TGI (compound CCOC(=O)CC1=N/C(=N/C(=N)N[N+](=O)[O-])SC1 ): > 100 µM

Recorded TGI (compound Cc1cc(N(CCC#N)CCC#N)ccc1/C=C(\NC(=O)/C=C/c1ccccc1)C(=O)N=[N+]=[N-] ): > 100 µM

Recorded TGI (compound CC[C@@H]1/C=C/C=C/C[C@H](C)[C@@H](O)[C@@H](C)C(=O)[C@H](C)[C@@H](O)[C@H](C)C(=O)[C@H](C)[C@@H](O)[C@H](C)/C=C/C(=O)O[C@H]2[C@@H](C)[C@@H](CC1)O[C@@]1(CC[C@@H](C)[C@@H](CC(C)O)O1)[C@@H]2C (stereo not given in full) ): > 25 µM

Recorded TGI (compound CC(CN1NC12CCCC2)N1NC12CCCC2 (stereo not given) ): > 100 µM

Recorded TGI (compound COc1cc2cc(NCc3cccc(Cl)c3)nc(C)c2cc1OC ): 23.6 µM

Recorded TGI (compound COc1cc2c(cc1OS(C)(=O)=O)N=C[C@@H]1CCCN1C2=O ): > 100 µM

Recorded TGI (compound O=S(=O)(NCCCNc1cc(-c2cn(-c3ccccc3)nc2-c2cccc(O)c2)ccn1)c1ccc(C(F)(F)F)cc1 ): 7.66 µM

Recorded TGI (compound CCCCCCCCCCCCCCCCOCC(COP(=O)(O)OCC1OC(n2cc(CC)c(=O)[nH]c2=O)CC1O)OC(=O)CCCCCCCCCCCCCCC (stereo not given) ): > 100 µM

Recorded TGI (compound CC(=O)CCC#Cc1ccccc1C(=O)C(C)=[N+]=[N-] ): > 100 µM

Recorded TGI (compound O=C1CSCC(=O)Nc2ccccc2N1 ): > 100 µM

Recorded TGI (compound OCC(O)COCn1cc(Cn2ncc3c(SCc4ccccc4)ncnc32)nn1 (stereo not given) ): > 100 µM

Recorded TGI (compound Cc1ccc(S(=O)(=O)NNC(=O)Nc2cccc(C(F)(F)F)c2)cc1 ): > 100 µM
